meta.source: the Human Domainome abundance scans (Beltran et al. 2025)

Please provide measured abundance fitness for the entries that follow.
B1: Nuclear receptor subfamily 1 group D member 2, residues 103 to 171; numbered along this chain, Q14995 (parent)
chain: CKVCGDVASGFHYGVHACEGCKGFFRRSIQQNIQYKKCLKNENCSIMRMNRNRCQQCRFKKCLSVGMSR

- Variants of: B1
- test summary: abundance fitness (aPCA) (normalised: wild type 0, dead -1); higher = more abundant; growth selection in yeast, the domain comes from the species named
- condition set: Homo sapiens
No unit in the answer, please; the number alone is enough.

Prompt line: Would you mind telling me what abundance fitness value was observed for CKVCGDVASGFHYGVHACEGCKGFFRRSIQQNIQYPKCLKNENCSIMRMNRNRCQQCRFKKCLSVGMSR [K36P] ?
Response line: -0.199

Prompt line: Would you mind telling me what abundance fitness value was observed for CKVCGDVASGFHYGVHACEGCKGFFRRSIQQNIQYKKCLKNEECSIMRMNRNRCQQCRFKKCLSVGMSR [N43E] ?
Response line: 0.017

Prompt line: Would you mind telling me what abundance fitness value was observed for CKVCGDVASGFHYGVHACEGCKGFFRRSIQQNIQYKKCLKNENCSIMRMNRNRMQQCRFKKCLSVGMSR [C54M] ?
Response line: -0.618

Prompt line: Would you mind telling me what abundance fitness value was observed for CKVCGDVASGFHYGVHACEGCKGFFRRSIQQNIQYKKCLKNENCYIMRMNRNRCQQCRFKKCLSVGMSR [S45Y] ?
Response line: -0.045

Prompt line: Would you mind telling me what abundance fitness value was observed for CKVCGDVASGFHYGVHACEGCKGFFRRSIQQNIQYKKELKNENCSIMRMNRNRCQQCRFKKCLSVGMSR [C38E] ?
Response line: -0.857

Prompt line: Would you mind telling me what abundance fitness value was observed for CKVCGDVASGFHYGVHACEGCKGFFRRSIQQNIQYKKCLKNENCSMMRMNRNRCQQCRFKKCLSVGMSR [I46M] ?
Response line: -0.093

Prompt line: Would you mind telling me what abundance fitness value was observed for CKVCGDVASGFHYGVHACEGCKGFFRRSIQQNIQYKKCLKNENCSIMRMNRNRCQQCRFGKCLSVGMSR [K60G] ?
Response line: -0.428

Prompt line: Would you mind telling me what abundance fitness value was observed for CKVCGDVASGFHYGVHACEGCKGFFRRSIQQNIQYKKCLKVENCSIMRMNRNRCQQCRFKKCLSVGMSR [N41V] ?
Response line: -0.446

Prompt line: Would you mind telling me what abundance fitness value was observed for CKVCGDVASGFHYGVHACEGCKGFFRRSIQQMIQYKKCLKNENCSIMRMNRNRCQQCRFKKCLSVGMSR [N32M] ?
Response line: -0.44

Prompt line: Would you mind telling me what abundance fitness value was observed for CKVCGDVASGFHYGVHACEGCKGFFRRSIQQNIQYSKCLKNENCSIMRMNRNRCQQCRFKKCLSVGMSR [K36S] ?
Response line: 0.137

Prompt line: Would you mind telling me what abundance fitness value was observed for CKVCGDVASGFHYGVHACEGCKGFFRRSIQQNIQYKKCLKNENCSIMVMNRNRCQQCRFKKCLSVGMSR [R48V] ?
Response line: 0.241

Prompt line: Would you mind telling me what abundance fitness value was observed for CKVCGDVASGFHYGVHACEGCKGFFRRSIQQSIQYKKCLKNENCSIMRMNRNRCQQCRFKKCLSVGMSR [N32S] ?
Response line: -0.381

Prompt line: Would you mind telling me what abundance fitness value was observed for CKVCGDVASGFHYGVHACEGCKGFFRRSIQQNIQYKKCTKNENCSIMRMNRNRCQQCRFKKCLSVGMSR [L39T] ?
Response line: -0.121

Prompt line: Would you mind telling me what abundance fitness value was observed for CKVCGDVASGFHYGVHACEGCKGFFRRSIQQNIQYKKCLKNENCSIMRMNRNRSQQCRFKKCLSVGMSR [C54S] ?
Response line: -0.688

Prompt line: Would you mind telling me what abundance fitness value was observed for CKVCGDVASGFHYGVHACEGCKGFFRRSIQQNIQYKKCGKNENCSIMRMNRNRCQQCRFKKCLSVGMSR [L39G] ?
Response line: -0.163

Prompt line: Would you mind telling me what abundance fitness value was observed for CKVCGDVASGFHYGVHACEGCKGFFRRSIQQNIQYKKCLKNENCSIMRMTRNRCQQCRFKKCLSVGMSR [N50T] ?
Response line: -0.121

Prompt line: Would you mind telling me what abundance fitness value was observed for CKVCGDVASGFHYGVHACEGCKGFFRRSIQQNIQYKKCLKNENCSLMRMNRNRCQQCRFKKCLSVGMSR [I46L] ?
Response line: -0.282

Prompt line: Would you mind telling me what abundance fitness value was observed for CKVCGDVASGFHYGVHACEGCKGFFRRSIQQWIQYKKCLKNENCSIMRMNRNRCQQCRFKKCLSVGMSR [N32W] ?
Response line: -0.891

Prompt line: Would you mind telling me what abundance fitness value was observed for CKVCGDVASGFHYGVHACEGCKGFFRRSIQQNIQYKKCLKNENCSIMRMNRNRCQQCPFKKCLSVGMSR [R58P] ?
Response line: -0.698

Prompt line: Would you mind telling me what abundance fitness value was observed for CKVCGDVASGFHYGVHACEGCKGFFRRSIQQNIQYKKCLKNENCSIMRMNRNRCNQCRFKKCLSVGMSR [Q55N] ?
Response line: -0.265

Prompt line: Would you mind telling me what abundance fitness value was observed for CKVCGDVASGFHYGVHACEGCKGFFRRSIQQNIQYKKCDKNENCSIMRMNRNRCQQCRFKKCLSVGMSR [L39D] ?
Response line: 0.321

Prompt line: Would you mind telling me what abundance fitness value was observed for CKVCGDVASGFHYGVHACEGCKGFFRRSIQQNIQYKKCLKNENCSIMRMNRNFCQQCRFKKCLSVGMSR [R53F] ?
Response line: 0.257

Prompt line: Would you mind telling me what abundance fitness value was observed for CKVCGDVASGFHYGVHACEGCKGFFRRSIQQNIQYKKCLKNENCSIMRDNRNRCQQCRFKKCLSVGMSR [M49D] ?
Response line: 0.428

Prompt line: Would you mind telling me what abundance fitness value was observed for CKVCGDVASGFHYGVHACEGCKGFFRRSIQQNIQYKKCLKNENCSIMRMNRNRCLQCRFKKCLSVGMSR [Q55L] ?
Response line: -0.006

Prompt line: Would you mind telling me what abundance fitness value was observed for CKVCGDVASGFHYGVHACEGCKGFFRGSIQQNIQYKKCLKNENCSIMRMNRNRCQQCRFKKCLSVGMSR [R27G] ?
Response line: -0.433

Prompt line: Would you mind telling me what abundance fitness value was observed for CKVCGDVASGFHYGVHACEGCKGFFRRSIQQNIQYKKCLKNENCSIMRMNRNRCQQCRFKKCLSVGMER [S68E] ?
Response line: -0.087

Prompt line: Would you mind telling me what abundance fitness value was observed for CKVCGDVASGFHYGVHACEGCKGFFRRSIQQNIQYKKCLRNENCSIMRMNRNRCQQCRFKKCLSVGMSR [K40R] ?
Response line: -0.029

Prompt line: Would you mind telling me what abundance fitness value was observed for CKVCGDVASGFHYGVHACEGCKGFFRRSIQQNIQYKKCLCNENCSIMRMNRNRCQQCRFKKCLSVGMSR [K40C] ?
Response line: -0.615

Prompt line: Would you mind telling me what abundance fitness value was observed for CKVCGDVASGFHYGVHACEGCKGFFRRSIQQNIQYKKCLKNENCSIMRMNRNRCQQCRFKKELSVGMSR [C62E] ?
Response line: -0.456

Prompt line: Would you mind telling me what abundance fitness value was observed for CKVCGDVASGFHYGVHACEGCKGFFRRSIQQNIQYKKCLKNENYSIMRMNRNRCQQCRFKKCLSVGMSR [C44Y] ?
Response line: -0.183

Prompt line: Would you mind telling me what abundance fitness value was observed for CKVCGDVASGFHYGVHACEGCKGFFRRSIQQNIQYKKCLKNENCSIMRMNRNRCQQCRFKACLSVGMSR [K61A] ?
Response line: -0.328

Prompt line: Would you mind telling me what abundance fitness value was observed for CKVCGDVASGFHYGVHACEGCKGFFRRSIQQNIQYKKCLKNENCSIMRMNRNRCQQCRFKKCNSVGMSR [L63N] ?
Response line: -0.911

Prompt line: Would you mind telling me what abundance fitness value was observed for CKVCGDVASGFHYGVHACEGCKGFFRRSIQQNIQYKKCLKNENCSFMRMNRNRCQQCRFKKCLSVGMSR [I46F] ?
Response line: -0.613

Prompt line: Would you mind telling me what abundance fitness value was observed for CKVCGDVASGFHYGVHACEGCKGFFRRSIQQNIQYKKCLKNENCSIMRMNRNACQQCRFKKCLSVGMSR [R53A] ?
Response line: 0.248

Prompt line: Would you mind telling me what abundance fitness value was observed for CKVCGDVASGFHYGVHACEGCKGFFRRSIQQNIQYKKCLKNENCSIMRMNRNRCQQCRFKKCLSVGMPR [S68P] ?
Response line: -0.768

Prompt line: Would you mind telling me what abundance fitness value was observed for CKVCGDVASGFHYGVHACEGCKGFFRRSIQQNIQYKKCLKNENCSIVRMNRNRCQQCRFKKCLSVGMSR [M47V] ?
Response line: -0.051

Prompt line: Would you mind telling me what abundance fitness value was observed for CKVCGDVASGFHYGVHACEGCKGFFRRSIQQNIQYKKCLKNENCSIKRMNRNRCQQCRFKKCLSVGMSR [M47K] ?
Response line: -0.185

Prompt line: Would you mind telling me what abundance fitness value was observed for CKVCGDVASGFHYGVHACEGCKGFFRRSIQQNIQYKKCLKNELCSIMRMNRNRCQQCRFKKCLSVGMSR [N43L] ?
Response line: -0.115

Prompt line: Would you mind telling me what abundance fitness value was observed for CKVCGDVASGFHYGVHACEGCKGFFRRSIQQNIQYKKCLKNENCSIMRMNPNRCQQCRFKKCLSVGMSR [R51P] ?
Response line: 0.216

Prompt line: Would you mind telling me what abundance fitness value was observed for CKVCGDVASGFHYGVHACEGCKGFFRRSIQQNIQYKKCLKNENCSIMRMNRNRCQQCRFKKCLSVGMSA [R69A] ?
Response line: 0.233

Prompt line: Would you mind telling me what abundance fitness value was observed for CKVCGDVASGFHYGVHACEGCKGFFRRSIQQNIQYKKCLKNHNCSIMRMNRNRCQQCRFKKCLSVGMSR [E42H] ?
Response line: -0.231

Prompt line: Would you mind telling me what abundance fitness value was observed for CKVCGDVASGFHYGVHACEGCKGFFRRSIQQNAQYKKCLKNENCSIMRMNRNRCQQCRFKKCLSVGMSR [I33A] ?
Response line: -0.377

Prompt line: Would you mind telling me what abundance fitness value was observed for CKVCGDVASGFHYGVHACEGCKGFFRRSIQQNIQYKKCLKNENCSIMRPNRNRCQQCRFKKCLSVGMSR [M49P] ?
Response line: -0.178

Prompt line: Would you mind telling me what abundance fitness value was observed for CKVCGDVASGFHYGVHACEGCKGFFRRSIQQNIQYKKCLKNENCSIMRMNRNRCQQCRFFKCLSVGMSR [K60F] ?
Response line: 0.044

Prompt line: Would you mind telling me what abundance fitness value was observed for CKVCGDVASGFHYGVHACEGCKGFFRRSIQQNIQYKKCLKNENCSIMRMNRNRCQQCRPKKCLSVGMSR [F59P] ?
Response line: -0.783

Prompt line: Would you mind telling me what abundance fitness value was observed for CKVCGDVASGFHYGVHACEGCKGFFRRSIQQNIQYKKCLKNENCSIMRMNRNRCQQCRFKKCLSVGMSY [R69Y] ?
Response line: -0.083
